Origin of measurements: patent US10730850B2

Test system: hepatocytes
Experiment: Metabolic stability assay in hepatocyte suspension
Format: in vitro ADME
Settings: 1 μM test compound, Table 4
Label key: label 1 means QH under 10%; label 0 means QH of 10% or more.

INSERT INTO results (compound, discrete_label) VALUES
  ('N=C(N)NC(=O)OCc1ccnc(N2CCN(c3ccc(Cl)cn3)CC2)c1F [Example 1.078]', 'label 0'),
  ('COc1ncc(N2CCN(c3nccc(COC(=O)NC(=N)N)c3F)CC2)cn1 [Example 1.072]', 'label 1'),
  ('CNC(=O)c1ccc(N2CCN(c3nccc(COC(=O)NC(=N)N)c3F)CC2)nc1 [Example 1.091]', 'label 1'),
  ('COc1cnc(C2=CCN(c3nccc(COC(=O)NC(=N)N)c3F)CC2)nc1 [Example 1.064]', 'label 0'),
  ('CC(=O)N1CCC(C2CN(c3nccc(COC(=O)NC(=N)N)c3F)C2)CC1 [Example 1.047]', 'label 1'),
  ('N=C(N)NC(=O)OCc1ccnc(N2CCN(c3ccc(Cl)cc3)CC2)c1F [Example 1.077]', 'label 0'),
  ('N=C(N)NC(=O)OCc1ccnc(N2CCN(c3cccc(F)c3)CC2)c1F [Example 1.044]', 'label 0'),
  ('N#Cc1cccc(C2CCN(c3nccc(COC(=O)NC(=N)N)c3F)CC2)c1 [Example 1.051]', 'label 0');
